System: Streptococcus pyogenes A65
Assay: In vivo efficacy against the intraperitoneal infection of mice by Streptococcus pyogenes A65
Settings: A65, 336 h, male ddY mice, ip infection 4 LD50, oral, twice (5 minutes and 6 hours after infection), survival after 2 weeks
Below, each of the compounds is paired with its reported ED50 value.

{"columns": ["structureSmilesString", "ED50"],
 "data": [
  ["CCn1cc(C(=O)O)c(=O)c2cnc(N3CCCC3)nc21", "> 100 mg/kg"],
  ["CCn1cc(C(=O)O)c(=O)c2cnc(N3CCN(Cc4ccccc4)CC3)nc21", "> 100 mg/kg"],
  ["CCn1cc(C(=O)O)c(=O)c2cnc(N3CCN(Cc4ccc(N)cc4)CC3)nc21", "47.7 mg/kg"]
]}

Input `CCn1cc(C(=O)O)c(=O)c2cnc(N3CCN(Cc4ccc(Cl)cc4)CC3)nc21` , output reported ED50.
> 100 mg/kg

Input `CCn1cc(C(=O)O)c(=O)c2cnc(N3CCNCC3)nc21` , output reported ED50.
> 100 mg/kg

Input `CCn1cc(C(=O)O)c(=O)c2cnc(N3CCN(Cc4ccc(OC)cc4)CC3)nc21` , output reported ED50.
> 100 mg/kg

---

Below, each of the compounds is paired with its reported MIC value.
Tested on: Salmonella typhimurium S-9
Assay: In vitro antibacterial activity (MIC), Salmonella typhimurium S-9
Assay type: cell-based
Conditions: Salmonella enterica, TYPHIMURIUM, 48 h, pH 7
Give just the numeric value; mg/L need not be written.

{"columns": ["structureSmilesString", "systemName", "unitsText", "dataValue"],
 "data": [
  ["CCn1cc(C(=O)O)c(=O)c2cnc(N3CCN(Cc4ccc(N)cc4)CC3)nc21", "Salmonella typhimurium S-9", "mg/L", 3],
  ["CCn1cc(C(=O)O)c(=O)c2cnc(N3CCNCC3)nc21", "Salmonella typhimurium S-9", "mg/L", 1],
  ["CCn1cc(C(=O)O)c(=O)c2cnc(N3CCN(Cc4ccc(OC)cc4)CC3)nc21", "Salmonella typhimurium S-9", "mg/L", 3],
  ["CCn1cc(C(=O)O)c(=O)c2cnc(N3CCN(Cc4ccccc4)CC3)nc21", "Salmonella typhimurium S-9", "mg/L", 3]
]}

Alright, here's another compound for you.
Enter recorded MIC with Salmonella typhimurium S-9 for `CCn1cc(C(=O)O)c(=O)c2cnc(N3CCCC3)nc21` here.
3

---

Test system: Escherichia coli K-12
Assay: In vitro antibacterial activity (MIC), Escherichia coli K-12
Type: cell-based
Details: Escherichia coli, K12, 48 h, pH 7
measureName: MIC (µg/mL)
Give just the numeric value; µg/mL need not be written.

Here's what some known entries look like.
{"columns": ["structureSmilesString", "systemName", "dataValue"],
 "data": [
  ["CCn1cc(C(=O)O)c(=O)c2cnc(N3CCN(Cc4ccc(N)cc4)CC3)nc21", "Escherichia coli K-12", 1],
  ["CCn1cc(C(=O)O)c(=O)c2cnc(N3CCN(Cc4ccccc4)CC3)nc21", "Escherichia coli K-12", 3],
  ["CCn1cc(C(=O)O)c(=O)c2cnc(N3CCN(Cc4ccc(OC)cc4)CC3)nc21", "Escherichia coli K-12", 3]
]}

Alright, here's another compound for you.
Input `CCn1cc(C(=O)O)c(=O)c2cnc(N3CCNCC3)nc21` , output reported MIC.
1

Origin of values: patent US4125615A
